Data origin, for the record: patent US20200369755A1

Target: T1, recombinant human 4R0N tau (human, UniProt P10636 2-758)
T1 construct: also called P10636-6
T1 sequence (P10636 other isoform, or with tags, fused parts or gaps limits assumed): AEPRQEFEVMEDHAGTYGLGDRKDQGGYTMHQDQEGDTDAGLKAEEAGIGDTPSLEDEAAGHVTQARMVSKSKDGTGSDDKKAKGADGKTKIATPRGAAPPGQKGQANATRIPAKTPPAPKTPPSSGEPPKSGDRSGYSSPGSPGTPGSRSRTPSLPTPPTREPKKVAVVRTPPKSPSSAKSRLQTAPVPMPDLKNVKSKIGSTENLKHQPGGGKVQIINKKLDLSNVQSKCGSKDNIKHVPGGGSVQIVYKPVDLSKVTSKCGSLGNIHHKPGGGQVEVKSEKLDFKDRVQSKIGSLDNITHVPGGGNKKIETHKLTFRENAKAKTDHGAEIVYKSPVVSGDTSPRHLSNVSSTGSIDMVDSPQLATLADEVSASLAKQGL
Assay: SPR, Biacore T200, antibody captured on anti-human Fc, tau as analyte, 1:1 fit
Mark T for koff under 0.001 s⁻¹, F if at or over.

Determine if hu3D6VHv1bA11/L2-DIM18 (antibody, V domains shown, Humanized antibody with human Fc) VH: EVQLVQSGAEVVKPGATVKISCKASGFNIKDYYLHWVRQRPGQGLEWIGWIDPENGDTVYDPKFQGRATITADTSTDTAYLQLGSLTSEDTAVYFCSTLDFWGQGTLVTVSS VL: DVVMTQSPLSLPVTLGQPASISCKSSQSLLDSDGKTYLNWLQQRPGQSPRRLIYDVSKRDSGVPDRFSGSGSGTDFTLKISRVEAEDVGVYYCWQGTHFPYTFGGGTKLEIK shows koff strictly lower than 0.001 s⁻¹.
F

Determine if hu3D6VHv1bA11/L2-DIM21 (antibody, V domains shown, Humanized antibody with human Fc; also called hu3D6VHv1bA11 / hu3D6VLv2 L54D) VH: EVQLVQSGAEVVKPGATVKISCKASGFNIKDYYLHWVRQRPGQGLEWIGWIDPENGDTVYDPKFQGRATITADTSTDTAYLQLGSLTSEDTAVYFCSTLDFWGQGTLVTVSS VL: DVVMTQSPLSLPVTLGQPASISCKSSQSLLDSDGKTYLNWLLQRPGQSPRRLIYLVSKDDSGVPDRFSGSGSGTDFTLKISRVEAEDVGVYYCWQGTHFPYTFGGGTKLEIK shows koff strictly lower than 0.001 s⁻¹.
F

Determine if hu3D6VHv1bA11/L2-DIM6 (antibody, V domains shown, Humanized antibody with human Fc) VH: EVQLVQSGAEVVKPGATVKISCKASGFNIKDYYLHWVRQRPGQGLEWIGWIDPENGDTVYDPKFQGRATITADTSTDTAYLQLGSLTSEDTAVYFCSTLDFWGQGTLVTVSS VL: DVVMTQSPLSLPVTLGQPASISCKSSQSLLDSDGKTYLNWLQQRPGQSPRRLIYLVGKDDSGVPDRFSGSGSGTDFTLKISRVEAEDVGVYYCWQGTHFPYTFGGGTKLEIK shows koff strictly lower than 0.001 s⁻¹.
F

Determine if h3D6VHvb8/L2-DIM7 (antibody, V domains shown, Humanized antibody with human Fc; also called hu3D6VHv1bA11 D60E / hu3D6VLv2 L54G) VH: EVQLVQSGAEVVKPGATVKISCKASGFNIKDYYLHWVRQRPGQGLEWIGWIDPENGDTVYEPKFQGRATITADTSTDTAYLQLGSLTSEDTAVYFCSTLDFWGQGTLVTVSS VL: DVVMTQSPLSLPVTLGQPASISCKSSQSLLDSDGKTYLNWLLQRPGQSPRRLIYLVSKGDSGVPDRFSGSGSGTDFTLKISRVEAEDVGVYYCWQGTHFPYTFGGGTKLEIK shows koff strictly lower than 0.001 s⁻¹.
F

Determine if hu3D6VHv1bA11/L2-DIM4 (antibody, V domains shown) VH: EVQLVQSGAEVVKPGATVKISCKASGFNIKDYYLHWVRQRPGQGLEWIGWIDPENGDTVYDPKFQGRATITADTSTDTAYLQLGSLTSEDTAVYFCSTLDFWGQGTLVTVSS VL: DVVMTQSPLSLPVTLGQPASISCKSSQSLLDSDGKTYLNWLQQRPGQSPRRLIYLVGKRDSGVPDRFSGSGSGTDFTLKISRVEAEDVGVYYCWQGTHFPYTFGGGTKLEIK shows koff strictly lower than 0.001 s⁻¹.
T

Determine if h3D6VHvb8/L2-DIM6 (antibody, V domains shown, Humanized antibody with human Fc) VH: EVQLVQSGAEVVKPGATVKISCKASGFNIKDYYLHWVRQRPGQGLEWIGWIDPENGDTVYEPKFQGRATITADTSTDTAYLQLGSLTSEDTAVYFCSTLDFWGQGTLVTVSS VL: DVVMTQSPLSLPVTLGQPASISCKSSQSLLDSDGKTYLNWLQQRPGQSPRRLIYLVGKDDSGVPDRFSGSGSGTDFTLKISRVEAEDVGVYYCWQGTHFPYTFGGGTKLEIK shows koff strictly lower than 0.001 s⁻¹.
F
